# Test system: KM12 colon
# TEST PROTOCOL: NCI tumour cell line growth inhibition, 48 h
EXPERIMENTAL ENDPOINT: TGI (µM)
Kindly provide the numeric value in µM only, without the unit symbol.

Query: TGI; subject: "COc1ccc2c(c1)c1c3c(ccc4ncn2c43)N(CCO)CCN=1"
1.22

Now this one: "CCOC(=O)C1(C(=O)OCC)C(C(C)(C)C)=C(C)c2ccccc21"
25.9

Now this one: "COc1ccc(-c2ncnc3c2ncn3CC#CCCl)cc1"
17.5

Now this one: "C(=N\Nc1ncc(-c2cc3cc4c(cc3o2)OCO4)s1)/c1ccco1"
5.14

###

# Tested on: SK-OV-3 ovarian
# TEST PROTOCOL: NCI tumour cell line growth inhibition, 48 h
Some compounds, each annotated with its measured TGI.

COc1ccc(/C=C/c2cc(OC)c(OC(C)=O)c(OC)c2)cc1    > 100 µM
NC(=O)CC1OC(=O)Cc2cc3c(c(O)c21)C(=O)c1c(O)cccc1C3=O (configuration not stated)    > 100 µM
O=C(CC1(O)C(=O)Nc2c(Cl)cc(Cl)cc21)c1ccccc1 (configuration not stated)    > 100 µM

# next compound below
Query: TGI; subject: CC(C)(C)C(=O)N1C(C(=O)O)Cc2ccccc2[C@@H]1Cc1ccccc1 (some centres not stated)
> 100 µM

###

# System: OVCAR-4 ovarian
# TEST PROTOCOL: NCI tumour cell line growth inhibition, 48 h
EXPERIMENTAL ENDPOINT: TGI

Known TGI results, listed for orientation:
CC(C)(C)OC(=O)NCC(CNC(=O)OC(C)(C)C)C(N)=O    > 100 µM
Cc1ccc(CNc2ccc3nc(CCC4CCCCC4)[nH]c3c2)cc1    18.7 µM
COc1cc2nc(N3CCCN(C)CC3)nc(NC3CCN(Cc4ccccc4)CC3)c2cc1OC    4.79 µM

Query: TGI; subject: "COc1ccc2cc(-c3cnc4nonc4n3)ccc2c1"
> 100 µM

Now this one: "CC(C)(C)C1=CC(=N/N=c2\scc(-c3ccccc3)n2-c2ccccc2)C=C(C(C)(C)C)C1=O"
> 100 µM

Now this one: Cc1ccc(OCC2CO2)c(Br)c1 (stereo unspecified)
29.4 µM

Now this one: CC(=O)Nc1nc(C)c(S(=O)(=O)NC(=O)NC2NC(=O)NC2=O)s1 (stereo unspecified)
> 100 µM

Now this one: COC1OC2COC1(OCc1ccccc1)C1OC(C)(C)OC21 (stereo unspecified)
> 100 µM

Now this one: "CCSC[C@@H]1C[C@](O)(c2ccc(Cl)cc2)[C@@H](c2ccc(Cl)cc2)O1"
32.1 µM

Now this one: COc1cc(C2C=C(c3ccccc3)Oc3cc4c(cc32)OCO4)cc(OC)c1OC (stereo unspecified)
> 100 µM

Now this one: CC(C)(C)C(=O)N1C(C(=O)O)Cc2ccccc2[C@@H]1Cc1ccccc1 (stereo partly specified)
> 100 µM

###

# System: SW-620 colon
# TEST PROTOCOL: NCI tumour cell line growth inhibition, 48 h
EXPERIMENTAL ENDPOINT: TGI

Known TGI results, listed for orientation:
COc1ccc(N2C(=O)C3CC(c4ccc(Br)cc4)c4c([nH]c5ccccc45)C3C2=O)cc1 (stereo unspecified)    18.5 µM
CN(O)C(=O)CCC(NC(=O)CCC(N)C(=O)O)C(=O)NCC(=O)O (stereo unspecified)    > 100 µM
CCCCCCN(CCCCCC)CCC(=O)c1ccc2cc(Br)c3ccccc3c2c1    > 100 µM
CC(=O)O.CN1[CH-]N(Cc2ccc(C#N)cc2)c2ccccc21.[Ag+]    31 µM
CN(C)CCNc1ccc2ncn3c4ccc(O)cc4c(=O)c1c23    11.8 µM
CCOC(=O)CNC(=O)C(CCC(=O)N(C)O)NC(=O)CCC(N)C(=O)O (stereo unspecified)    > 100 µM

Query: TGI; subject: "NC(=O)c1cc(N2CC2)c([N+](=O)[O-])cc1[N+](=O)[O-]"
> 200 µM

Now this one: "CCCCCCCCCCCCSC(=S)c1c(C)[nH]n(-c2ccccc2)c1=O"
> 50 µM

Now this one: "COc1cc2nc(Nc3cccc(Cl)c3)nc(N)c2cc1OC"
7.15 µM

Now this one: "CCCCSC1=N/C(=C\c2ccccc2O)C(=O)N1"
> 100 µM

Now this one: CC(C)(C)C1=C(Br)C(F)(C(C)(C)C)OP1(=O)c1ccccc1 (stereo unspecified)
32.3 µM

Now this one: "O=C1C(Cl)=C(Cl)C(=O)C(CCNc2nccs2)=C1Cl"
> 100 µM

Now this one: "O=S1(=O)c2ccccc2N(O)C2=NCCN21"
> 100 µM

Now this one: CCOC(=O)C12CCC(=O)N1N(C)c1ncccc1N2 (stereo unspecified)
> 100 µM

Now this one: "NCC(=O)Nc1ccccc1"
> 100 µM

Now this one: "CCOC(=O)C1(C(=O)OCC)C(C(C)(C)C)=C(C)c2ccccc21"
28.8 µM

###

# Tested on: SN12C renal
# TEST PROTOCOL: NCI tumour cell line growth inhibition, 48 h
EXPERIMENTAL ENDPOINT: TGI

CC(C)(C)C1=CC(=N/N=c2\scc(-c3ccccc3)n2-c2ccccc2)C=C(C(C)(C)C)C1=O    > 100 µM
C(=N\Nc1ncc(-c2cc3cc4c(cc3o2)OCO4)s1)/c1ccco1    12.7 µM
CC1=C([Te]c2ccccc2)C(=O)c2ccccc2C1=O    1.47 µM

Query: TGI; subject: CCOC(=O)C12CCCC1(O)N(NC(=O)OC)C(C)=C2C(=O)OC (stereo not given)
> 100 µM

Now this one: "CCOC(=O)c1ccc(-n2cnc(-c3ccc([N+](=O)[O-])cc3)c2)cc1"
> 100 µM

Now this one: "Cc1ccc(S(=O)(=O)n2cc(C=O)c(-c3cn(S(=O)(=O)c4ccc(C)cc4)cc3-c3cn(S(=O)(=O)c4ccc(C)cc4)cc3C=O)c2)cc1"
> 100 µM

Now this one: Cc1ccc(OCC2CO2)c(Br)c1 (stereo not given)
45 µM

Now this one: COC(=O)C(CNC(=O)/C=C/c1ccc(OC)c(OC)c1)NC(=O)/C=C/c1ccc(OC)c(OC)c1 (stereo not given)
> 100 µM

Now this one: "Nc1ncc(-c2ccc3ncnc(Nc4cccc(Cl)c4)c3c2)cn1"
> 100 µM

Now this one: NC(=O)CC1OC(=O)Cc2cc3c(c(O)c21)C(=O)c1c(O)cccc1C3=O (stereo not given)
> 100 µM

###

# Tested on: NCI/ADR-RES ovarian
# TEST PROTOCOL: NCI tumour cell line growth inhibition, 48 h
Some compounds, each annotated with its measured TGI.

Known TGI results, listed for orientation:
O=[N+]([O-])c1ccc(-c2csc(N=Nc3c(O)[nH]c4ccccc34)n2)cc1    > 100 µM
CN(C)CCNc1ccc2ncn3c4ccc(O)cc4c(=O)c1c23    18.9 µM
CN(O)C(=O)CCC(NC(=O)CCC(N)C(=O)O)C(=O)NCC(=O)O (centres undefined)    > 100 µM

# next compound below
Query: TGI; subject: "COc1ccccc1C#Cc1ccccc1C#Cc1ccc(OCCCCCCOc2ccccc2C#Cc2ccccc2C#Cc2ccccc2OC)cc1"
> 100 µM

###

# Test system: HT29 colon
# TEST PROTOCOL: NCI tumour cell line growth inhibition, 48 h
EXPERIMENTAL ENDPOINT: TGI

Known TGI results, listed for orientation:
CCN(CC)CCN(CC)CC.CCN(CC)CCN(CC)CC.[Cu+2].[Cu+2].[O-][Cl+3]([O-])([O-])[O-].[OH3+].[OH3+]    87.9 µM
CSc1ccc(C2=NN(C(C)=O)C(c3ccc(-c4cc(Cl)c(Cl)cc4Cl)o3)C2)cc1 (stereo not given)    26.7 µM
CO/C=C(/C(=O)OC)[C@@H]1C[C@@H]1c1ccc2ccccc2c1    48.6 µM

Query: TGI; subject: CC1(C)Oc2ccc3ccc(=O)oc3c2C(O)C1O (stereo not given)
71.3 µM

Now this one: "CCn1c(SCC(=O)N/N=C2\SCC(=O)N2c2ccc(C)cc2)nc2ccccc2c1=O"
31.2 µM

###

Some molecules, each annotated with its measured TGI.
# System: SK-MEL-5 melanoma
# TEST PROTOCOL: NCI tumour cell line growth inhibition, 48 h

Known TGI results, listed for orientation:
CCOC(=O)C12CCC(=O)N1N(C)c1ncccc1N2 (stereo unspecified)    > 100 µM
CCOC(=O)CNC(=O)C(CCC(=O)N(C)O)NC(=O)CCC(N)C(=O)O (stereo unspecified)    > 100 µM
O=C(Nc1ccccc1)N(CCN(Cc1ccccc1)C(=O)Nc1ccccc1)CCN(Nc1ccccc1)C(=O)Nc1ccccc1    > 100 µM
COC(=O)/C=C1/SC(=Nc2cccc(Cl)c2)N(CCc2c[nH]c3ccc(O)cc23)C1=O    4.19 µM
COc1ccc2cc(-c3cnc4nonc4n3)ccc2c1    8.5 µM

# next molecule below
Query: TGI; subject: "COC(=O)CCC(=O)Nc1ccc(Cl)cc1C"
> 100 µM
